# testedOn: T1, human ferroportin (SLC40A1) fused in frame with GFP, stably expressed in HEK293 cells (human, UniProt Q9NP59 1-571)
# T1 sequence (looked up): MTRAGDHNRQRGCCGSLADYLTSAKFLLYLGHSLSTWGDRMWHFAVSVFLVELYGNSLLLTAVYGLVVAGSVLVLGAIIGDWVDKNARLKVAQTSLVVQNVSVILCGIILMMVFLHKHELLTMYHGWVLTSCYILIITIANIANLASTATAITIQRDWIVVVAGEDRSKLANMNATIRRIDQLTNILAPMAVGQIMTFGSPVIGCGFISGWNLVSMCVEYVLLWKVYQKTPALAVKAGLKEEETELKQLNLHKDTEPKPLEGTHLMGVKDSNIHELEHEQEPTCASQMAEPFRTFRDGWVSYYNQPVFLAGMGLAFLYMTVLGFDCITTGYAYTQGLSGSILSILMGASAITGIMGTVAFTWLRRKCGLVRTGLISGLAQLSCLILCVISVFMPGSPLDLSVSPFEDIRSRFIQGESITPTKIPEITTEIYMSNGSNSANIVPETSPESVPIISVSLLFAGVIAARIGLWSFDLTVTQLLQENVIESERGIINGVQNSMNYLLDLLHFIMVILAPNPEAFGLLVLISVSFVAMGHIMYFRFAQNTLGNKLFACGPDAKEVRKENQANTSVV
# methodSummary: cell-based or functional assay
Non-standard residues stand in square brackets, D forms with d. *: point of attachment. Ala(1H-tetrazol-5-yl) = N[C@@H](Cc1nnn[nH]1)C(=O)O; Dip = N[C@H](C(=O)O)C(c1ccccc1)c1ccccc1; His(τ-Me) = Cn1cnc(C[C@H](N)C(=O)O)c1; β3hF = N[C@H](CC(=O)O)Cc1ccccc1; Isovaleryl = CC(C)CC(=O)*

binder	FPN EC50
Isovaleryl-[Ala(1H-tetrazol-5-yl)]T[His(τ-Me)][Dip]PAIK(Ac)[β3hF][dK]A-NH2 (SMILES CC[C@H](C)[C@H](NC(=O)[C@H](C)NC(=O)[C@@H]1CCCN1C(=O)[C@@H](NC(=O)[C@H](Cc1cn(C)cn1)NC(=O)[C@@H](NC(=O)[C@H](Cc1nnn[nH]1)NC(=O)CC(C)C)[C@@H](C)O)C(c1ccccc1)c1ccccc1)C(=O)N[C@@H](CCCCNC(C)=O)C(=O)N[C@H](CC(=O)N[C@H](CCCCN)C(=O)N[C@@H](C)C(N)=O)Cc1ccccc1) [Isovaleric Acid-[Tet1]-T-[(1-Me)His]-[Dpa]-P-A-I-[Lys(Ac)]-[bhPhe]-[(D)Lys]-A-NH2]	> 3 µM

Cited source for all entries: patent US20240066131A1
